measurement-description: Concentration required to cause 50% inhibition of platelet activating factor (PAF)-induced platelet aggregation of human platelet rich plasma when challenged with 25 nM PAF.
// boundary case: IC50 equal to 2 µM maps to label 0; strictly smaller maps to label 1

Task: Is it true that IC50 reported for CC(=O)N1CCC(=C2c3ccc(F)cc3CCc3cccnc32)CC1 is less than 2 µM?
Output: label 1

Task: Is it true that IC50 reported for CC(=O)N1CCC(=C2c3ccc(Cl)cc3CCc3cccnc32)CC1 is less than 2 µM?
Output: label 1

Task: Is it true that IC50 reported for CCCC(=O)N1CCC(=C2c3ccc(Cl)cc3CCc3cccnc32)CC1 is less than 2 µM?
Output: label 0

Task: Is it true that IC50 reported for CC(=O)C1CCC(=C2c3ccc(Cl)cc3CCc3cccnc32)CC1 (stereo not drawn) is less than 2 µM?
Output: label 0

Task: Is it true that IC50 reported for CC(=O)N1CCC(=C2c3cc(F)ccc3CCc3cccnc32)CC1 is less than 2 µM?
Output: label 1

====

IC50 listing for selected molecules.
measurement-description: Concentration required to cause 50% inhibition of platelet activating factor (PAF)-induced platelet aggregation of human platelet rich plasma when challenged with 25 nM PAF.
Express the result in nM but write the number alone.

>  <smiles-code>
CC(=O)N1CCC(=C2c3ccc(C)cc3CCc3cccnc32)CC1

>  <IC50 / nM>
1000

$$$$
>  <smiles-code>
CC(=O)N1CCC(=C2c3cc(Cl)c(Cl)cc3CCc3cccnc32)CC1

>  <IC50 / nM>
1800

$$$$
>  <smiles-code>
COc1ccc2c(c1)CCc1cccnc1C2=C1CCN(C(C)=O)CC1

>  <IC50 / nM>
3400

$$$$

In the following, a different molecule is considered.
Task: Report measured IC50; entry is COc1cc([C@@H]2CC[C@@H](c3cc(OC)c(OC)c(OC)c3)O2)cc(OC)c1OC
Output: 1500

Data credit: BindingDB's records for doi:10.1021/jm00105a069
